Test system: MDA-MB-468 breast
assay-explanation: NCI tumour cell line growth inhibition, 48 h
measure: log10 TGI (log10 of the value in µM)

• CC1CCCCN1CCCNC(=O)N/C(N)=N/c1nc2ccccc2s1 (stereo not given) = 1.49
• O=C(NO)c1cnc(N2CCN(S(=O)(=O)c3ccc4ccccc4c3)CC2)nc1 = 0.81
• CCS/C(Nc1ccccc1)=C(\C#N)C(=O)N/N=C/c1ccc(Cl)cc1Cl = 0.96
• ClC1=C(Cl)C(Cl)=C(Cl)C1=Cc1ccc(Cl)cc1 = -0.06
• CNCCOc1nc2c3cnccc3cc(-c3cc(OC)c(OC)c(OC)c3)c2c2ccncc12 = -0.97
• CCCCCCC1N=C(N)N=C(N)N1c1ccc(Cl)cc1 (stereo not given) = 0.67
